Endpoint Label: melting point (°C)

COc1nc2ccccc2cc1C(c1cccc(-c2cnc3ccccc3c2)c1)C(O)(CCCCN(C)C)c1ccc2ccccc2c1 (single isomer, unassigned) [Compound 16]	141
COc1nc2ccc(Br)cc2cc1C(c1ccc(Cl)cc1)C(O)(CCCCN(C)C)COc1ccccc1 (single isomer, unassigned) [Compound 4]	118
COc1nc2ccc(Br)cc2cc1C(c1ccccc1)C(O)(CCCCN1CCN(C)CC1)COc1ccc(C)cc1 (single isomer, unassigned) [Compound 24]	168
COc1nc2ccccc2cc1C(c1ccc(-c2cnn(C)c2)cc1)C(O)(CCCCN(C)C)c1ccc2ccccc2c1 (single isomer, unassigned) [Compound 10]	190
COc1nc2ccccc2cc1C(c1ccc(-c2ccoc2)cc1)C(O)(CCCCN(C)C)c1ccc2ccccc2c1 (single isomer, unassigned) [Compound 13]	197
COc1nc2ccc(Br)cc2cc1C(c1ccccc1)C(O)(CCCCN1CCN(C)CC1)COc1ccccc1 (single isomer, unassigned) [Compound 20]	144
COc1nc2ccc(Br)cc2cc1C(c1ccccc1)C(O)(CCCCN(C)C)COc1ccc(C)cc1 (single isomer, unassigned) [Compound 5]	146
COc1nc2ccc(Br)cc2cc1C(c1ccccc1)C(O)(CCCCN(C)C)COc1ccccc1 (single isomer, unassigned) [Compound 2]	151
COc1nc2ccccc2cc1C(c1ccc(-c2ccncc2)cc1)C(O)(CCCCN(C)C)c1ccc2ccccc2c1 (single isomer, unassigned) [Compound 48]	210
COc1nc2ccc(Br)cc2cc1C(c1ccc(Cl)cc1)C(O)(CCCCN1CCN(C)CC1)COc1ccccc1 (single isomer, unassigned) [Compound 22]	158
COc1nc2ccc(Br)cc2cc1C(c1ccc2c(c1)OCO2)C(O)(CCN(C)C)c1ccccc1 (single isomer, unassigned) [Compound 30]	159
COc1nc2ccc(Br)cc2cc1C(c1ccccc1)C(O)(CCCCN(C)C)COc1ccccc1 (single isomer, unassigned) [Compound 1]	148
